Value source: ChEMBL document CHEMBL4219064

logD listing for selected compounds.
# EXPERIMENT NOTES: Lipophilicity, log D of the compound at pH 7.4
# Assay type: physicochemical
# SETUP CONDITIONS: buffer

{"COMPOUND": "CCN1C(=O)C(C)Oc2cc(NC(=O)CC(C)CC(=O)Nc3ccc(C#N)c(Cl)c3)ccc21 (racemic)", "logD": 2.66}
{"COMPOUND": "CCn1c(=O)c2cc(NC(=O)CC(C)CC(=O)Nc3ccc(C#N)c(Cl)c3)ccc2n(CC)c1=O (racemic)", "logD": 2.99}
{"COMPOUND": "CCn1c2ccccc2c2cc(NC(=O)CC(C)CC(=O)Nc3ccc(C#N)c(Cl)c3)ccc21 (racemic)", "logD": 3.76}
